Study Target: Diacylglycerol kinase iota (Homo sapiens, UniProt O75912)
Sequence (O75912 whole entry): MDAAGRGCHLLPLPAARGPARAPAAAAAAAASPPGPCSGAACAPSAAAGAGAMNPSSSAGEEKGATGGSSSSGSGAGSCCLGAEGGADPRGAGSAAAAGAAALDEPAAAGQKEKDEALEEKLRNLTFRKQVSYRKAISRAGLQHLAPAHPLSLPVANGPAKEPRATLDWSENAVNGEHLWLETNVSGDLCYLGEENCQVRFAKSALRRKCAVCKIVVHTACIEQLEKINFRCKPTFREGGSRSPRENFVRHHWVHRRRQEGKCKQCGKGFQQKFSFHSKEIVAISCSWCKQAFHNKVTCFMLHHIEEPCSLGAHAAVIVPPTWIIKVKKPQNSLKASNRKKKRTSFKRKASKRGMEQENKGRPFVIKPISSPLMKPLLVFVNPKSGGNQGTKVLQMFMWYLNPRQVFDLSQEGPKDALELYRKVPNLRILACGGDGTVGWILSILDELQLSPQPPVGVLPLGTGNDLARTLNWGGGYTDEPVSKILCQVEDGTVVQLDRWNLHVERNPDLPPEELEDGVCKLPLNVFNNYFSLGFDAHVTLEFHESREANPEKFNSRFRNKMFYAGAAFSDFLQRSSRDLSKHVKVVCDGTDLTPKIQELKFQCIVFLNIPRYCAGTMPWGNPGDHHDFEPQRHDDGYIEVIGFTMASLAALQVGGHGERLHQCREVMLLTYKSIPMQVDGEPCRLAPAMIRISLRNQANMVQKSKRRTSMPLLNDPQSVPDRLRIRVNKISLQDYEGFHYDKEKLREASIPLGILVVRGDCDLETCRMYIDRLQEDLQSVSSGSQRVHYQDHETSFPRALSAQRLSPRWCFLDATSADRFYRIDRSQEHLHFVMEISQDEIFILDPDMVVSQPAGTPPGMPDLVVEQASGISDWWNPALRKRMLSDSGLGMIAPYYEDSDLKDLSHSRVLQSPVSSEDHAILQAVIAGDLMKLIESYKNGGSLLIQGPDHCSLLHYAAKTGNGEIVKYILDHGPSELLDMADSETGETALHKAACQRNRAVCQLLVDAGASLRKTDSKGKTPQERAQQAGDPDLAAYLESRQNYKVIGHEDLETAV
pIC50: −log10 of the molar value.
Each entry below carries its recorded pIC50.

Molecule | Comparison Symbol | pIC50
Cn1c(=O)c([N+](=O)[O-])c(N2CCN(C(c3ccc(F)cc3)c3ccc(F)cc3)CC2)c2ncccc21 | = | 6.00
O=c1c2ccccc2[nH]c(=S)n1CCN1CCC(=C(c2ccc(F)cc2)c2ccc(F)cc2)CC1 | < | 5.00
Cn1c(=O)c([N+](=O)[O-])c(N2CCN(C(c3ccccc3)c3ccccc3)CC2)c2ccccc21 | < | 5.00
Cn1c(=O)c([N+](=O)[O-])c(N2CCN(C(c3ccc(F)cc3)c3ccc(F)cc3)CC2)c2cc(C#N)ccc21 | = | 5.21
